Some compounds, each annotated with its measured IC50.
Target: Human immunodeficiency virus type 1 reverse transcriptase (Human immunodeficiency virus 1, UniProt Q72547)
Assay: Inhibition of HIV1 wild-type reverse transcriptase Y181I/Y181C mutant using [3H]dTTP by scintillation counting
EXPERIMENTAL_ENDPOINT: IC50

{"COMPOUND": "Cc1cccc(CCNC(=O)c2[nH]c3ccc(Cl)cc3c2S(=O)(=O)c2cc(C)cc(C)c2)c1", "EXPERIMENTAL_ENDPOINT": "IC50", "MEASURED": "> 20 µM"}
{"COMPOUND": "Cc1cc(C)cc(S(=O)(=O)c2c(C(=O)NC(C)c3ccccc3)[nH]c3ccc(Cl)cc23)c1 (racemic)", "EXPERIMENTAL_ENDPOINT": "IC50", "MEASURED": "8.23 µM"}
{"COMPOUND": "Cc1ccc(CNC(=O)c2[nH]c3ccc(Cl)cc3c2S(=O)(=O)c2cc(C)cc(C)c2)cc1", "EXPERIMENTAL_ENDPOINT": "IC50", "MEASURED": "> 20 µM"}
{"COMPOUND": "Cc1cc(C)cc(S(=O)(=O)c2c(C(=O)NCc3ccc(F)cc3)[nH]c3ccc(Cl)cc23)c1", "EXPERIMENTAL_ENDPOINT": "IC50", "MEASURED": "> 20 µM"}
{"COMPOUND": "COc1ccc(CNC(=O)c2[nH]c3ccc(Cl)cc3c2S(=O)(=O)c2cc(C)cc(C)c2)cc1", "EXPERIMENTAL_ENDPOINT": "IC50", "MEASURED": "> 20 µM"}
{"COMPOUND": "Cc1cc(C)cc(S(=O)(=O)c2c(C(=O)NCCc3ccccc3Cl)[nH]c3ccc(Cl)cc23)c1", "EXPERIMENTAL_ENDPOINT": "IC50", "MEASURED": "> 20 µM"}
{"COMPOUND": "Cc1cc(C)cc(S(=O)(=O)c2c(C(=O)NCc3ccccc3F)[nH]c3ccc(Cl)cc23)c1", "EXPERIMENTAL_ENDPOINT": "IC50", "MEASURED": "> 20 µM"}
{"COMPOUND": "Cc1cc(C)cc(S(=O)(=O)c2c(C(=O)NCc3ccccc3[N+](=O)[O-])[nH]c3ccc(Cl)cc23)c1", "EXPERIMENTAL_ENDPOINT": "IC50", "MEASURED": "> 20 µM"}

----------
Tested on: Human immunodeficiency virus 1
Assay: Ratio of EC50 for HIV1 harboring reverse transcriptase K103N mutant to EC50 for wild type HIV1 NL4.3
Assay type: functional
Output schema: class label derived from Ratio EC50. Mapping: zone 1 (below 10), zone 2 (10 to below 40), zone 3 (40 or more)

{"MOLECULE": "COc1ccc(CNC(=O)c2[nH]c3ccc(Cl)cc3c2S(=O)(=O)c2cc(C)cc(C)c2)cc1", "SYSTEM_UNDER_TEST": "Human immunodeficiency virus 1", "DISCRETE_LABEL": "zone 3"}
{"MOLECULE": "Cc1cc(C)cc(S(=O)(=O)c2c(C(=O)NCc3ccccc3F)[nH]c3ccc(Cl)cc23)c1", "SYSTEM_UNDER_TEST": "Human immunodeficiency virus 1", "DISCRETE_LABEL": "zone 2"}
{"MOLECULE": "Cc1ccc(CCNC(=O)c2[nH]c3ccc(Cl)cc3c2S(=O)(=O)c2cc(C)cc(C)c2)cc1", "SYSTEM_UNDER_TEST": "Human immunodeficiency virus 1", "DISCRETE_LABEL": "zone 3"}
{"MOLECULE": "Cc1cc(C)cc(CNC(=O)c2[nH]c3ccc(Cl)cc3c2S(=O)(=O)c2cc(C)cc(C)c2)c1", "SYSTEM_UNDER_TEST": "Human immunodeficiency virus 1", "DISCRETE_LABEL": "zone 3"}
{"MOLECULE": "Cc1cc(C)cc(S(=O)(=O)c2c(C(=O)N[C@@H](C)c3ccccc3)[nH]c3ccc(Cl)cc23)c1", "SYSTEM_UNDER_TEST": "Human immunodeficiency virus 1", "DISCRETE_LABEL": "zone 2"}
{"MOLECULE": "Cc1cc(C)cc(S(=O)(=O)c2c(C(=O)N[C@H](C)c3ccccc3)[nH]c3ccc(Cl)cc23)c1", "SYSTEM_UNDER_TEST": "Human immunodeficiency virus 1", "DISCRETE_LABEL": "zone 1"}
{"MOLECULE": "Cc1cc(C)cc(S(=O)(=O)c2c(C(=O)NCCc3ccccc3Cl)[nH]c3ccc(Cl)cc23)c1", "SYSTEM_UNDER_TEST": "Human immunodeficiency virus 1", "DISCRETE_LABEL": "zone 1"}
{"MOLECULE": "Cc1cc(C)cc(S(=O)(=O)c2c(C(=O)NCC(C)c3ccccc3)[nH]c3ccc(Cl)cc23)c1 (racemic)", "SYSTEM_UNDER_TEST": "Human immunodeficiency virus 1", "DISCRETE_LABEL": "zone 3"}
{"MOLECULE": "Cc1cc(C)cc(S(=O)(=O)c2c(C(=O)NCc3ccc([N+](=O)[O-])cc3)[nH]c3ccc(Cl)cc23)c1", "SYSTEM_UNDER_TEST": "Human immunodeficiency virus 1", "DISCRETE_LABEL": "zone 3"}
{"MOLECULE": "Cc1cc(C)cc(S(=O)(=O)c2c(C(=O)NCCc3cccc(Cl)c3)[nH]c3ccc(Cl)cc23)c1", "SYSTEM_UNDER_TEST": "Human immunodeficiency virus 1", "DISCRETE_LABEL": "zone 3"}
{"MOLECULE": "Cc1cc(C)cc(S(=O)(=O)c2c(C(=O)NCc3ccc(N(C)C)cc3)[nH]c3ccc(Cl)cc23)c1", "SYSTEM_UNDER_TEST": "Human immunodeficiency virus 1", "DISCRETE_LABEL": "zone 2"}
{"MOLECULE": "Cc1cc(C)cc(S(=O)(=O)c2c(C(=O)NCc3ccccc3[N+](=O)[O-])[nH]c3ccc(Cl)cc23)c1", "SYSTEM_UNDER_TEST": "Human immunodeficiency virus 1", "DISCRETE_LABEL": "zone 1"}
{"MOLECULE": "Cc1cc(C)cc(S(=O)(=O)c2c(C(=O)NCCc3ccccc3C)[nH]c3ccc(Cl)cc23)c1", "SYSTEM_UNDER_TEST": "Human immunodeficiency virus 1", "DISCRETE_LABEL": "zone 2"}
{"MOLECULE": "Cc1cc(C)cc(S(=O)(=O)c2c(C(=O)NC(C)c3ccccc3)[nH]c3ccc(Cl)cc23)c1 (racemic)", "SYSTEM_UNDER_TEST": "Human immunodeficiency virus 1", "DISCRETE_LABEL": "zone 3"}
{"MOLECULE": "Cc1cccc(CCNC(=O)c2[nH]c3ccc(Cl)cc3c2S(=O)(=O)c2cc(C)cc(C)c2)c1", "SYSTEM_UNDER_TEST": "Human immunodeficiency virus 1", "DISCRETE_LABEL": "zone 3"}
{"MOLECULE": "Cc1cc(C)cc(S(=O)(=O)c2c(C(=O)NCc3ccc(N)cc3)[nH]c3ccc(Cl)cc23)c1", "SYSTEM_UNDER_TEST": "Human immunodeficiency virus 1", "DISCRETE_LABEL": "zone 2"}
{"MOLECULE": "Cc1ccc(CNC(=O)c2[nH]c3ccc(Cl)cc3c2S(=O)(=O)c2cc(C)cc(C)c2)cc1", "SYSTEM_UNDER_TEST": "Human immunodeficiency virus 1", "DISCRETE_LABEL": "zone 3"}
{"MOLECULE": "Cc1cc(C)cc(S(=O)(=O)c2c(C(=O)NCc3cccc(F)c3)[nH]c3ccc(Cl)cc23)c1", "SYSTEM_UNDER_TEST": "Human immunodeficiency virus 1", "DISCRETE_LABEL": "zone 1"}
{"MOLECULE": "Cc1cn([C@H]2C[C@H](N=[N+]=[N-])[C@@H](CO)O2)c(=O)[nH]c1=O [ZIDOVUDINE]", "SYSTEM_UNDER_TEST": "Human immunodeficiency virus 1", "DISCRETE_LABEL": "zone 1"}
{"MOLECULE": "Cc1cc(C)cc(S(=O)(=O)c2c(C(=O)NCc3ccc(F)cc3)[nH]c3ccc(Cl)cc23)c1", "SYSTEM_UNDER_TEST": "Human immunodeficiency virus 1", "DISCRETE_LABEL": "zone 2"}
{"MOLECULE": "Cc1cc(C)cc(S(=O)(=O)c2c(C(=O)NCc3ccc(Cl)cc3)[nH]c3ccc(Cl)cc23)c1", "SYSTEM_UNDER_TEST": "Human immunodeficiency virus 1", "DISCRETE_LABEL": "zone 2"}

----------
Some compounds, each annotated with its measured selectivity ratio.
Test: Selectivity index, ratio of CC50 for human MT4 cells to EC50 for HIV1 NL4.3 infected in human MT4 cells
Type: toxicity, cell-based
Conditions: read-out: Ratio CC50/EC50
EXPERIMENTAL_ENDPOINT: selectivity ratio

{"COMPOUND": "Cc1cc(C)cc(S(=O)(=O)c2c(C(=O)NCCc3ccccc3C)[nH]c3ccc(Cl)cc23)c1", "MEASURED": "> 8380"}
{"COMPOUND": "Cc1cc(C)cc(S(=O)(=O)c2c(C(=O)NCc3cccc(F)c3)[nH]c3ccc(Cl)cc23)c1", "MEASURED": "> 78100"}
{"COMPOUND": "Cc1cc(C)cc(S(=O)(=O)c2c(C(=O)NCCc3ccccc3Cl)[nH]c3ccc(Cl)cc23)c1", "MEASURED": 11200}
{"COMPOUND": "Cc1ccc(CCNC(=O)c2[nH]c3ccc(Cl)cc3c2S(=O)(=O)c2cc(C)cc(C)c2)cc1", "MEASURED": "> 2270"}
{"COMPOUND": "Cc1cc(C)cc(S(=O)(=O)c2c(C(=O)NCc3ccc([N+](=O)[O-])cc3)[nH]c3ccc(Cl)cc23)c1", "MEASURED": "> 25100"}
{"COMPOUND": "COc1ccc(CNC(=O)c2[nH]c3ccc(Cl)cc3c2S(=O)(=O)c2cc(C)cc(C)c2)cc1", "MEASURED": 190000}
{"COMPOUND": "Cc1cccc(CCNC(=O)c2[nH]c3ccc(Cl)cc3c2S(=O)(=O)c2cc(C)cc(C)c2)c1", "MEASURED": "> 8380"}
{"COMPOUND": "Cc1cc(C)cc(S(=O)(=O)c2c(C(=O)NCC(C)c3ccccc3)[nH]c3ccc(Cl)cc23)c1 (racemic)", "MEASURED": 94900}

// data source = ChEMBL document CHEMBL3259792
